biological target: UniProtKB O94925; assay: KGA inhibition IC50; assay type: biochemical; settings: read-out: KGA IC50
measured_metric: IC50 (µM)

1) COc1ccc2c(c1)c(CC(=O)Nc1nnc(CCCCc3ccc(NC(=O)Cc4cccc(OC(F)(F)F)c4)nn3)[se]1)cn2C : 0.005
2) Cn1ccc(CC(=O)Nc2nnc(CCSCCc3nnc(N)s3)s2)c1 : 0.57
3) O=C(Cc1ccccc1)Nc1nnc(CCSCCc2nnc(NC(=O)Cc3ccccc3)[se]2)[se]1 : 0.06
4) Cn1cc(CC(=O)Nc2nnc(CCSCCc3nnc(NC(=O)Cc4cn(C)c5ccccc45)s3)s2)c2ccccc21 : 0.28
5) O=C(Cc1cccc(OC(F)(F)F)c1)Nc1ccc(CCCCc2nnc(NC(=O)Cc3ccccn3)[se]2)nn1 : 0.001
6) Cn1cc(CC(=O)Nc2nnc(CCCCc3ccc(NC(=O)Cc4cccc(OC(F)(F)F)c4)nn3)[se]2)c2ccccc21 : 0.001
7) Cn1cc(CC(=O)Nc2nnc(CCSCCc3nnc(N)s3)s2)c2ccccc21 : 0.14
8) Cn1cc(CC(=O)Nc2nnc(CCSCCc3nnc(NC(=O)Cc4cn(C)c5ccccc45)[se]3)[se]2)c2ccccc21 : 0.027
9) Cn1ccc(CC(=O)Nc2nnc(CCSCCc3nnc(NC(=O)Cc4ccn(C)c4)s3)s2)c1 : 0.13
10) Cn1ccc(CC(=O)Nc2nnc(CCSCCc3nnc(NC(=O)Cc4ccn(C)c4)[se]3)[se]2)c1 : 0.06

###

measured_metric: melting point

1) ClCCc1nnc(NCCc2ccccc2)[se]1 : 109 to 110 °C
2) c1ccc(Nc2nnc(CCc3nnc(Nc4ccccc4)[se]3)[se]2)cc1 : 160 to 161 °C
3) ClCCc1nnc(Nc2ccccc2)[se]1 : 109 to 110 °C
4) N=C(N)NCc1nnc(Nc2ccccc2)[se]1 : 109 to 110 °C
5) c1ccc(Nc2nnc(CCCc3nnc(Nc4ccccc4)[se]3)[se]2)cc1 : 198 to 201 °C
6) ClCCc1nnc(NCc2ccccc2)[se]1 : 109 to 110 °C
7) c1ccc(Nc2nnc(Cc3nnc(Nc4ccccc4)[se]3)[se]2)cc1 : 130 to 132 °C
8) c1ccc(Nc2nnc(CCSCCc3nnc(Nc4ccccc4)[se]3)[se]2)cc1 : 172 to 174 °C
9) c1ccc(Nc2nnc(CCCCCc3nnc(Nc4ccccc4)[se]3)[se]2)cc1 : 165 to 171 °C

###

Target: KGA (Homo sapiens)
Sequence (O94925 55-669): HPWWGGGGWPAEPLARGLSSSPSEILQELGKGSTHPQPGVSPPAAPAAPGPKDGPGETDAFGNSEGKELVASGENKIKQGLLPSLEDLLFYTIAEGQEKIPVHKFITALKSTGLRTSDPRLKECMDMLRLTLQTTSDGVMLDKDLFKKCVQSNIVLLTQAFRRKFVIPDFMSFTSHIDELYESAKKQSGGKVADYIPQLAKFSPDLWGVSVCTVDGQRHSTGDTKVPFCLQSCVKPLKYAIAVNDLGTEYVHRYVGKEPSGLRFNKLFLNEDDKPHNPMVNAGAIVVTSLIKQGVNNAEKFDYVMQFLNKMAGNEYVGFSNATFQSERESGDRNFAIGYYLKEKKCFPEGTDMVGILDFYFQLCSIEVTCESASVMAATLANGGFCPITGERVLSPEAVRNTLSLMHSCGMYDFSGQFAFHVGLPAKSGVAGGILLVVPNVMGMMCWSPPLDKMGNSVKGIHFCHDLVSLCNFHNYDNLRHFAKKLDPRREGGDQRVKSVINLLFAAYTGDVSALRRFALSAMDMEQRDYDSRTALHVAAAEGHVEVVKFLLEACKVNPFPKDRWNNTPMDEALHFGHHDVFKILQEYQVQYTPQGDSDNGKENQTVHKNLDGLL
Test: KGA inhibition IC50
Type: biochemical
Description: The molecular structure of specific compounds is described as follows: […]
measured_metric: IC50 (µM)

1) Cn1cc(CC(=O)Nc2nnc(CCSCCc3nnc(N)[se]3)[se]2)c2ccccc21 : 0.11
2) Cn1ccc(CC(=O)Nc2nnc(CCSCCc3nnc(N)[se]3)[se]2)c1 : 0.21
3) Nc1nnc(CCSCCc2nnc(NC(=O)C34CC5CC(CC(C5)C3)C4)[se]2)[se]1 : 4
4) Nc1nnc(CCSCCc2nnc(NC(=O)Cc3ccccc3)[se]2)[se]1 : 1.4
5) O=C(Nc1nnc(CCSCCc2nnc(NC(=O)C34CC5CC(CC(C5)C3)C4)[se]2)[se]1)C12CC3CC(CC(C3)C1)C2 : 1.9

These data points were gathered from patent US10975048B2.
